Biological target: P. falciparum apicoplast DNA polymerase (Pf-apPOL) (Plasmodium falciparum)
Sequence (Q8ILY1 entry or part of it): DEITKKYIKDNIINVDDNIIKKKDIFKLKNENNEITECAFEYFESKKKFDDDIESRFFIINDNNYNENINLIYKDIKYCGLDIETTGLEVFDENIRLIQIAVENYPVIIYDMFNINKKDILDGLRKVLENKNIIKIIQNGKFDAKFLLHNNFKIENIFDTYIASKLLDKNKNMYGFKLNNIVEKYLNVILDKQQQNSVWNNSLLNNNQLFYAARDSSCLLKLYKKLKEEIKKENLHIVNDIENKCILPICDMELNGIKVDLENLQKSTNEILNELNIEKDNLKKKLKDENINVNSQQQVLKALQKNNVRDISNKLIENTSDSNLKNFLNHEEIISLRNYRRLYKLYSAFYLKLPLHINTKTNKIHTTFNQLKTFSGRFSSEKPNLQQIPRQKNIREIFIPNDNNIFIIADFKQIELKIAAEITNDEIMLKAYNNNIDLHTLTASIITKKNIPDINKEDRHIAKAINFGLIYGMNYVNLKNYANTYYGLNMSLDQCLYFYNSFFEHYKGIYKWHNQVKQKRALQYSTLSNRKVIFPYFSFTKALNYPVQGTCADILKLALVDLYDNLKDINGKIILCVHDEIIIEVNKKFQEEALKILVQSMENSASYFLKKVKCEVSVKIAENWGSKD
Assay: Fluorescence-based high-throughput DNA polymerase assay (molecular beacon), primary screen and dose-response;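 further: test concentration in µM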
Type: biochemical
Conditions: DRC-2; concentration 80; 90'
From the text: The HT assay employs a molecular beacon, a stem-loop DNA template with a Cy3 dye and the Black Hole Quencher on the 3′ and 5′ ends of the DNA, respectively. Pf-apPOL concentration is based on a calculated absorptivity of ε280 = 56750 M^−1 cm^−1. […] To identify apPOL inhibitors we utilised our previously developed high-throughput DNA polymerase assay. […] The assay accurately recapitulates the kinetic behaviour of apPOL, as measured through more conventional low-throughput gel-based assays. […]
quantity.kind: % inhibition ApPOL 90' (%)

[[record]]
molecule = "COc1ccc(NC(=O)Cn2nc3c(cc2=O)CCC3)cc1Cl [Molecule 4, COc1ccc(cc1Cl)NC(=O)Cn1nc2CCCc2cc1=O]"
quantity_kind = "% inhibition ApPOL 90'"
units_label = "%"
reported = 71

[[record]]
molecule = "COc1cc(/C=C2\\C(=O)N(c3ccc(C(=O)O)cc3)N=C2C(F)(F)F)ccc1OCC(C)C [KU0069072]"
quantity_kind = "% inhibition ApPOL 90'"
units_label = "%"
reported = 80

[[record]]
molecule = "Cc1ccnc(NS(=O)(=O)c2ccc(-n3cccc3)cc2)n1 [KU0034899]"
quantity_kind = "% inhibition ApPOL 90'"
units_label = "%"
reported = 67

[[record]]
molecule = "O=C(Cc1cccs1)N1CCN(c2nc(CN3CCOCC3)cs2)CC1 [Molecule 35]"
quantity_kind = "% inhibition ApPOL 90'"
units_label = "%"
reported = 65

[[record]]
molecule = "O=C1c2ccccc2C(=O)c2c1oc1c3c(ccc21)OCN(C1CCCC1)C3 [KU0064306]"
quantity_kind = "% inhibition ApPOL 90'"
units_label = "%"
reported = 65

[[record]]
molecule = "Oc1cccnc1/N=C/c1cc(I)cc(I)c1O [KU0073720]"
quantity_kind = "% inhibition ApPOL 90'"
units_label = "%"
reported = 76

[[record]]
molecule = "Cc1ccc(C2=N/C(=C\\c3ccc(I)o3)C(=O)O2)cc1[N+](=O)[O-] [KU0073890]"
quantity_kind = "% inhibition ApPOL 90'"
units_label = "%"
reported = 75

[[record]]
molecule = "CCOc1ccc2cc(C3=NN(C(=O)CCC(=O)O)C(c4ccc(C)cc4)C3)c(=O)[nH]c2c1 (centres unmarked) [KU0056200]"
quantity_kind = "% inhibition ApPOL 90'"
units_label = "%"
reported = 78

[[record]]
molecule = "CCc1ccccc1NC(=O)c1ccc(-c2ncccc2NC(C)=O)cc1 [KU0203112]"
quantity_kind = "% inhibition ApPOL 90'"
units_label = "%"
reported = 74

[[record]]
molecule = "CCCN1COc2ccc3c(=O)c(-c4ccccc4)coc3c2C1 [KU0199556]"
quantity_kind = "% inhibition ApPOL 90'"
units_label = "%"
reported = 48

[[record]]
molecule = "O=C(O)c1nc(-c2ccccc2)nc2c1OCO2 [Molecule 45, OC(=O)c1nc(nc2c1OCO2)c1ccccc1]"
quantity_kind = "% inhibition ApPOL 90'"
units_label = "%"
reported = 80

[[record]]
molecule = "COc1ccc(-c2occ(C(=O)O)c2C(=O)O)cc1 [KU0021536]"
quantity_kind = "% inhibition ApPOL 90'"
units_label = "%"
reported = 77

[[record]]
molecule = "O=[N+]([O-])c1ccc(SCc2ccco2)c2cccnc12 [KU0034480]"
quantity_kind = "% inhibition ApPOL 90'"
units_label = "%"
reported = 66

[[record]]
molecule = "CCCCCc1c2c(cc(O)c1C(=O)O)OC(=O)c1c(cc(OC)cc1C(=O)CCCC)O2 [Molecule 24]"
quantity_kind = "% inhibition ApPOL 90'"
units_label = "%"
reported = 80

[[record]]
molecule = "COc1ccc(C=C2Oc3c(ccc4c3CN(Cc3ccco3)CO4)C2=O)c(OC)c1 [KU0199404]"
quantity_kind = "% inhibition ApPOL 90'"
units_label = "%"
reported = 48

[[record]]
molecule = "O=C(O)c1cc([N+](=O)[O-])c(N2CCN(c3cccc(C(F)(F)F)c3)CC2)c([N+](=O)[O-])c1 [KU0076747]"
quantity_kind = "% inhibition ApPOL 90'"
units_label = "%"
reported = 77

[[record]]
molecule = "O=C(Cn1ccc2c(=O)[nH]ccc21)Nc1ccccc1Cl [Molecule 19, O=C(Cn1ccc2c1cc[nH]c2=O)Nc1ccccc1Cl]"
quantity_kind = "% inhibition ApPOL 90'"
units_label = "%"
reported = 64

